Entries and their measured growth inhibition follow.
- measurementDescription: NCI Yeast Anticancer Drug Screen. Data for the cln2 rad14 strain (AID 165);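 note: 0% = growth equal to vehicle treated cultures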
- experimentalConditions: S. cerevisiae cln2 rad14 strain, at 50.0 µM (retest, dose inferred, filed as 5.0), active compounds read high
About 79,000 compounds went through this panel and 15% of them were active in at least one assay; those are over-represented in the sample as a whole.
Quick reminder: number only, in %, skip the unit.

Recorded results for 3 molecules are shown here.
| molecule | valueUnit | growth inhibition |
| --- | --- | --- |
| CC(=O)OC1C2(CC3N4C(=O)C5(CO)SSC4(CC31O)C(=O)N5C)OC(C)C(C)(C)C2=O (stereo not given) | % | 99 |
| CN1c2cccc[c]2[Sn]([CH3])([CH3])[c]2ccccc21 | % | 100 |
| O=[N+]([O-])c1ccc(C=Cc2ccc(C(F)(F)F)cc2)cc1.[C-]#[O+].[C-]#[O+].[C-]#[O+].[Cr] | % | 60 |

Qu. Could you tell me which growth inhibition is on file for `O=C1NC(=S)NC(=O)C1=Cc1ccc([N+](=O)[O-])o1` ?
Ans. 35

Qu. Could you tell me which growth inhibition is on file for CCC[As](CCC)SC1CCC2(C)C(=CCC3C4CCC(=O)C4(C)CCC32)C1 (stereo not given) ?
Ans. 89

====

- measurementDescription: NCI Yeast Anticancer Drug Screen. Data for the mec2-1 strain (AID 157)
- experimentalConditions: S. cerevisiae mec2-1 strain, at 50.0 µM (retest, dose inferred, filed as 5.0)
Compounds without any hit were thinned out: in the full panel of roughly 79,000, 15% have a hit. The source made the active and inactive calls. Rule as the data show it: active = growth inhibition above about 70%; inactive = the rest.
Give your call using only these classes: 1.0 (active), 0.0 (inactive)

| compound | assignedClass |
| --- | --- |
| Cc1c(N)nc([C@H](CC(N)=O)NC[C@H](N)C(N)=O)nc1C(=O)N[C@H](C(=O)N[C@H](C)[C@@H](O)CC(=O)N[C@H](C(=O)NC(O[C@@H]1O[C@@H](C)[C@@H](N)[C@@H](O)[C@H]1O)C(O)c1nc(-c2nc(C(=O)NCCCCN)cs2)cs1)[C@@H](C)O)[C@@H](O[C@@H]1O[C@@H](CO)[C@@H](O)[C@H](O)[C@@H]1O[C@H]1O[C@H](CO)[C@@H](O)[C@H](OC(N)=O)[C@@H]1O)c1c[nH]cn1 (some centres undefined) | 1.0 |

Qu. Lab log entry: `Cc1cccc2cc3ccccc3cc12` — outcome as called in the assay?
Ans. 1.0

Qu. Lab log entry: `CCCCCCCCCC[Se]C#N` — outcome as called in the assay?
Ans. 1.0

Qu. Lab log entry: `CN(N=O)C(=O)NNC(=O)N(C)N=O` — outcome as called in the assay?
Ans. 1.0

Qu. Lab log entry: `CC12CCC(C)(c3cc(O)c(O)cc31)c1cc(O)c(O)cc12` — outcome as called in the assay?
Ans. 0.0

Qu. Lab log entry: C[N+](C)(C)CC1CCC(C[N+](C)(C)C)C1=O (centres undefined) — outcome as called in the assay?
Ans. 0.0

Qu. Lab log entry: `O=C(CBr)Nc1ccccc1Cl` — outcome as called in the assay?
Ans. 1.0

Qu. Lab log entry: CCN(CC)P1(=O)OC(c2ccccc2)=CCN1c1ccc(OC)cc1 (centres undefined) — outcome as called in the assay?
Ans. 1.0

Qu. Lab log entry: `NNc1ccccc1Cl` — outcome as called in the assay?
Ans. 1.0
